Every entry's value here was drawn from ChEMBL document CHEMBL1759844.

Hi there, I'd appreciate the recorded CC50 at 72 h for every entry that follows.
# measurement.description: Cytotoxicity against african green monkey Vero cells after 72 hrs by MTT assay
# Assay type: cell-based
# assay.setup: chlorocebus sabaeus
Report as a plain number; the unit µM is understood.

Enquiry: Which CC50 at 72 h value is on record for `O=C(/C=C/c1cccc([N+](=O)[O-])c1)NCCNC(=O)/C=C/c1cccc([N+](=O)[O-])c1` ?
Return: 615

Enquiry: What about this compound? `O=C(/C=C/c1cccs1)NCCNC(=O)/C=C/c1cccs1`
Return: 692

Enquiry: What about this compound? `O=C(/C=C/c1ccccc1)NCCNC(=O)/C=C/c1ccccc1`
Return: 618

Enquiry: What about this compound? `O=C(/C=C/c1ccccc1Cl)NCCNC(=O)/C=C/c1ccccc1Cl`
Return: 725

Enquiry: What about this compound? `O=C(/C=C/c1ccccc1)N1CCCN(C(=O)/C=C/c2ccccc2)CC1`
Return: 708

Enquiry: What about this compound? `COc1ccccc1/C=C/C(=O)NCCNC(=O)/C=C/c1ccccc1OC`
Return: 695

Enquiry: What about this compound? `Cc1ccc(/C=C/C(=O)NCCNC(=O)/C=C/c2ccc(C)cc2)cc1`
Return: 565

Enquiry: What about this compound? `O=C(/C=C/c1ccco1)NCCNC(=O)/C=C/c1ccco1`
Return: 683

Enquiry: What about this compound? `O=C(/C=C/c1ccccc1)N1CCN(C(=O)/C=C/c2ccccc2)CC1`
Return: 855

Enquiry: What about this compound? `CC[C@@H](CO)NCCN[C@@H](CC)CO`
Return: 1470
